tested_on: T1, recombinant human FasR (Homo sapiens, UniProt P25445)
T1 construct: Fas receptor (FasR, CD95), human, recombinant; The FasR of the BLI and SPR experiments; Details are in Supplementary Protocols 8-10; also called recombinant FasR
assay_remarks: BLI; Octet Red384; recombinant human FasR; 1:1 Langmuir model; at least in duplicate; who was immobilised is not told (Supplementary Protocols 8-10)
assay_setup: both partners purified
# if value of kon reaches 200000 M⁻¹ s⁻¹, tag Condition met; if it stays below, tag Condition not met

>  <binder>
A05a scFv (scFv, V domains shown, numbers count on: Kabat numbering; scFv linker, as in m6; Most abundant variant of round IV; the same as the Clade 2 consensus R4aH; also called R4aH) VH: QLQLQESSPGLVKPSETLSITCTVPGASISANSYYGVWVRQSPGKGLEWVGSIAYRGNSNSGSTYYNPSLKSRATVSVDTSKNQVSLRLTSVTAADTALYYCARRQLLDDGTGYQWAAFDVWGQGTMVTVSS VL: QSVLTQPPSVSEAPRQTVTISCSGNSFNIGRYPVNWYQQLPGKAPKLLIYHNNLRFSGVSDRFSGSKSGTSASLAIRDLLSEDEADYYCSTWDDTLKGWVFGGGTKVTVL

>  <assigned_label>
Condition not met

$$$$
>  <binder>
A01b scFv (scFv, V domains shown, numbers count on: Kabat numbering; scFv linker, as in m6; Selected by BeSD, round IV) VH: QLQLQESGPGLVKPSETLSLTCTVPGASISANSYYGVWIRQSPGKGLEWVGSIAYRGNSNSGSTYYNPSLKSRATVSVDTSKNRVSLRLTSVTAADTALYYCARRQLLDDGTGYQWAAFDVWGQGTMVTVPS VL: QSVLTQPPSVSEVPRQTVTISCSGNSFNIGRYPVNWYQQLPGKAPKLLIYHNNLRFSGVSDRFSGSKSGTSASLAIRDLLSEDEADYYCSTWDDTLKGWVFGGGTKVTVL

>  <assigned_label>
Condition not met

$$$$
>  <binder>
E09 IgG (antibody, V domains shown, VH: as the VH of m6 (E09); IgG heavy constant region; VL: as the VL of m6 (E09); light constant region; IgG; also called parent) VH: QLQLQESGPGLVKPSETLSLTCTVSGASISANSYYGVWVRQSPGKGLEWVGSIAYRGNSNSGSTYYNPSLKSRATVSVDTSKNQVSLRLTSVTAADTALYYCARRQLLDDGTGYQWAAFDVWGQGTMVTVSS VL: QSVLTQPPSVSEAPRQTVTISCSGNSFNIGRYPVNWYQQLPGKAPKLLIYYNNLRFSGVSDRFSGSKSGTSASLAIRDLLSEDEADYYCSTWDDTLKGWVFGGGTKVTVL

>  <assigned_label>
Condition met

$$$$
>  <binder>
Ep6b_B01 scFv (scFv, V domains shown, numbers count on: Kabat numbering; scFv linker, as in m6) VH: QLQLQESGPGLVKPSETLSLTCTVSGASISANSYYGVWVRQSPGKGLEWVGSIAYRGNSNSGSTYYNPSLKSRATVSVDSSKNQVSLRLTSVTAADTALYYCARRQLLDDGTGYQWAAFDVWGQGTMVTVSS VL: QSVLTQPPSVSEAPRQTVTISCSGNSSNIGRYPVNWYQQLPGKAPKLLIYSDNLRFSGVPDRFSGSKSGTTASLAIRDLLSEDEADYYCSTWDDTLEGWVFGGGTKVTVL

>  <assigned_label>
Condition met

$$$$
>  <binder>
Ep6b_B01 IgG (antibody, V domains shown, numbers count on: Kabat numbering; IgG heavy constant region; light constant region; IgG) VH: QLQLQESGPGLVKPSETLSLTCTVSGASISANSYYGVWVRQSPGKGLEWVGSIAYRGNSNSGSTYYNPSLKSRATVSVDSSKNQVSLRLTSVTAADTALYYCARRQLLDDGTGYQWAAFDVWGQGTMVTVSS VL: QSVLTQPPSVSEAPRQTVTISCSGNSSNIGRYPVNWYQQLPGKAPKLLIYSDNLRFSGVPDRFSGSKSGTTASLAIRDLLSEDEADYYCSTWDDTLEGWVFGGGTKVTVL

>  <assigned_label>
Condition met

$$$$
